Assay: Non-enzymatic stability under cellular assay conditions (HPLC)
Type: physicochemical
Details: compound remaining, assay medium DMEM, 37 °C, 12 h
Method: An important aspect in the development of PROTACs is testing chemical stability. On the one hand, we tested all PROTACs produced for their stability under cellular assay conditions. For this purpose, 10 µM solutions of the PROTACs and reference inhibitor were incubated for 72 h at 37 °C with the assay medium DMEM. The remaining amount of the compounds was determined by HPLC after 6, 12, 24, 48 and 72 h. The results of the stability studies are shown in Table S2 (Supplementary Information). […]
Measured endpoint: 12 h- % (%)
Numbers only, in %.

Example entries begin here.
[
  {
    "Test smiles": "Cc1ncsc1-c1ccc([C@H](C)NC(=O)[C@@H]2C[C@@H](O)CN2C(=O)[C@@H](NC(=O)[C@H]2CC[C@H](C(=O)N3CCN(CCNC(=O)c4cc(Oc5ccc(NC(=O)Nc6cc(C(C)(C)C)on6)cc5)ccn4)CC3)CC2)C(C)(C)C)cc1",
    "Scale unit": "%",
    "12 h- %": 100.0
  },
  {
    "Test smiles": "Cc1ncsc1-c1ccc([C@H](C)NC(=O)[C@@H]2C[C@@H](O)CN2C(=O)[C@@H](NC(=O)CCCCCNC(=O)c2cc(Oc3ccc(NC(=O)Nc4cccc(C(F)(F)F)c4)cc3)ccn2)C(C)(C)C)cc1",
    "Scale unit": "%",
    "12 h- %": 100.3
  },
  {
    "Test smiles": "Cc1ncsc1-c1ccc([C@H](C)NC(=O)[C@@H]2C[C@@H](O)CN2C(=O)[C@@H](NC(=O)CCCCCCCNC(=O)c2cc(Oc3ccc(NC(=O)Nc4cccc(C(F)(F)F)c4)cc3)ccn2)C(C)(C)C)cc1",
    "Scale unit": "%",
    "12 h- %": 100.0
  }
]

Please go through the list and note 12 h- % for each compound.
1. Cc1ncsc1-c1ccc([C@H](C)NC(=O)[C@@H]2C[C@@H](O)CN2C(=O)[C@@H](NC(=O)CCCCCCCNC(=O)c2cc(Oc3ccc(NC(=O)Nc4cc(C(C)(C)C)on4)cc3)ccn2)C(C)(C)C)cc1
2. Cc1ncsc1-c1ccc([C@H](C)NC(=O)[C@@H]2C[C@@H](O)CN2C(=O)[C@@H](NC(=O)CCOCCOCCNC(=O)c2cc(Oc3ccc(NC(=O)Nc4cc(C(C)(C)C)on4)cc3)ccn2)C(C)(C)C)cc1

1. 101.3
2. 101.4
